B1: tRNA (parent)
chain: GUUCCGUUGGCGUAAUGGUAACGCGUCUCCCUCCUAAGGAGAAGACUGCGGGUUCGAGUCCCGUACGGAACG

Variants of: B1
Assay: yeast fitness relative to wild type (ratio to wild type); higher = fitter; tRNA-Arg(CCU), competitive growth, 37 C, YPD
Variants at the floor of the assay were thinned out.
I'd be grateful if you could share measured yeast fitness for these entries.
Reply with just the number.

response.value for A37G G44A A65C (field: yeast fitness) = 0.561

response.value for C5A C11G G41C (field: yeast fitness) = 0.561

response.value for U16C C46U (field: yeast fitness) = 1.05

response.value for A20G C49U A69C (field: yeast fitness) = 0.786

response.value for C31G G63A C66U (field: yeast fitness) = 0.64

response.value for C4A G6A U28G A37G (field: yeast fitness) = 0.738

response.value for C5U A43U C66U (field: yeast fitness) = 0.68

response.value for U7G C33G (field: yeast fitness) = 0.654

response.value for C11U A20G U59A (field: yeast fitness) = 0.514

response.value for U35A G44A (field: yeast fitness) = 0.715

response.value for A43U A57C (field: yeast fitness) = 0.726

response.value for G41A A42C A65C (field: yeast fitness) = 0.565

response.value for C27A G44C G50C (field: yeast fitness) = 0.639

response.value for U13G C24U G56A (field: yeast fitness) = 0.612

response.value for U16G G51A (field: yeast fitness) = 0.783

response.value for G39A C62U (field: yeast fitness) = 1.05

response.value for A37C A45U (field: yeast fitness) = 0.695

response.value for A20U A42C (field: yeast fitness) = 0.648

response.value for U19A C22G (field: yeast fitness) = 0.919

response.value for A36C C46G (field: yeast fitness) = 0.543

response.value for A15C G17A U28A (field: yeast fitness) = 0.675

response.value for U13G C24U G44A G58C (field: yeast fitness) = 0.508

response.value for A14C C22G G63A (field: yeast fitness) = 0.642

response.value for U2G C24G (field: yeast fitness) = 0.769

response.value for C5G U47A (field: yeast fitness) = 0.731

response.value for C22G U28A A36U (field: yeast fitness) = 0.631

response.value for U16G A45U (field: yeast fitness) = 0.969

response.value for C27U C33U (field: yeast fitness) = 0.664

response.value for A40U U54C C62U (field: yeast fitness) = 0.528

response.value for A43U C60U G67C (field: yeast fitness) = 0.636

response.value for A36G G38C G58C (field: yeast fitness) = 0.687

response.value for A45U C66G (field: yeast fitness) = 0.617

response.value for C24U C49G G52C (field: yeast fitness) = 0.503

response.value for C31U U54C (field: yeast fitness) = 0.82

response.value for A45G G48C G56A (field: yeast fitness) = 0.968

response.value for G12A A43U A45C U54C G67C (field: yeast fitness) = 0.525

response.value for G56C G68A (field: yeast fitness) = 0.7

response.value for A15G G48A (field: yeast fitness) = 0.879

response.value for U19A C31G A65U (field: yeast fitness) = 0.582

response.value for U26G C27G A57C (field: yeast fitness) = 0.558

response.value for U2G A40G G41C C60G (field: yeast fitness) = 0.688

response.value for A20G C46U G63A (field: yeast fitness) = 0.82

response.value for G9A A45U G48A G56A (field: yeast fitness) = 0.701

response.value for C4A A14U C31U A40U G41C A45C A69C (field: yeast fitness) = 0.599
